Listed here are binders together with their documented CRF1R EC50.
Target: CRF1R
Experiment: cell-based or functional assay
Ends that are not written are not given here.

| binder | CRF1R EC50 |
| --- | --- |
| ZGPPISIDLPFQLLRKIIEIEKQEKEKQQAANNALLLATI (C-terminal amide) [SEQ ID NO 362] | 386 nM |
| IVLSLDVPIGLLQILLEQARARAAREQATTNARILARVM-NH2 [SEQ ID NO 368] | 1000 nM |
| ZGPPISIDLPIILLRKVIEIEKQEKEKQQAANNRLLLDTI (C-terminal amide) [SEQ ID NO 297] | 1000 nM |
| IVLSLDVPIHLLQILLEQARARAAREQATTNARILARV-NH2 [SEQ ID NO 371] | 1000 nM |
| NDDPPISIDLPFLLLRNMIEMARIENEREQAGLNAKYLAEV-NH2 [SEQ ID NO 260] | 834 nM |
| DNPSLSIDLPLFLLRTLLELARTQSQRERAEQNARIFARV-NH2 [SEQ ID NO 329] | 1000 nM |
